target: MEK1^CA (human GST-MEK1, constitutively active, Ser218Asp and Ser222Asp) (Homo sapiens, UniProt Q02750, S218D/S222D); construct: GST; made in house; host or cells: Escherichia coli; assay: MEK1 enzymatic activity assay (MEK1^CA / ERK2 / MBP, [γ-33P]ATP incorporation); assay type: biochemical; settings: Table 1, compounds of formula I; read-out: Avg IC50
Sequence (Q02750 whole entry S218D/S222D): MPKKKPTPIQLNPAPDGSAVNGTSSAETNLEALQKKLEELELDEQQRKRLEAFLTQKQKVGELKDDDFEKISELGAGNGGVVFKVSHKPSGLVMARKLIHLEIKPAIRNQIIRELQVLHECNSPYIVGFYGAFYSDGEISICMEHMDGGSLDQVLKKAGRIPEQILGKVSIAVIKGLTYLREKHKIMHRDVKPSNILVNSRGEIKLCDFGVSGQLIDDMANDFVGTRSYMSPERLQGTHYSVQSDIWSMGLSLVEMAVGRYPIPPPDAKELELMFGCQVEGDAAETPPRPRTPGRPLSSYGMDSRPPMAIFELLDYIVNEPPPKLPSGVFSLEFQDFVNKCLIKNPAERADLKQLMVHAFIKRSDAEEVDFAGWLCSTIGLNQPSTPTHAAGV
IC50 reference

COMPOUND: N=C(NC1CCC1)c1c(O)nsc1Nc1ccc(Oc2ccccc2)cc1 [Cpd 16]
IC50: 1 to 100 nM

Here is another compound to look at.
Which IC50 is listed for N=C(NCC1CCCCC1)c1c(O)nsc1Nc1cc(C(F)(F)F)cc(C(F)(F)F)c1 [compound 66] ?
> 500 nM

###

target: MEK1^CA (human GST-MEK1, constitutively active, Ser218Asp and Ser222Asp) (Homo sapiens, UniProt Q02750, S218D/S222D); construct: GST; made in house; host or cells: Escherichia coli; test: MEK1 enzymatic activity assay (MEK1^CA / ERK2 / MBP, [γ-33P]ATP incorporation); type: biochemical; conditions: Table 1, compounds of formula I; read-out: Avg IC50
ENDPOINT_NAME: IC50

Here's what some known entries look like.
COMPOUND: Cc1ccc(Oc2ccc(Nc3snc(O)c3C(=N)NCC3CCCCC3)cc2)cn1
IC50: 0.1 to 0.5 µM

COMPOUND: Cc1ccccc1Oc1ccc(Nc2snc(O)c2C(=N)NC(C)CO)cc1 (stereo not drawn)
IC50: 0.001 to 0.1 µM

Which IC50 is listed for "C[C@H](NC(=N)c1c(O)nsc1Nc1ccc(Oc2ccccc2)cc1)[C@@H](O)c1ccccc1" ?
0.001 to 0.1 µM

Which IC50 is listed for "CC(C)Nc1snc(O)c1C(=N)NCC1CCCCC1" ?
> 0.5 µM

Which IC50 is listed for "Cc1cc(C#N)cc(C)c1Oc1ccc(Nc2snc(O)c2C(=N)NC(C)C)cc1Cl" ?
> 0.5 µM

Which IC50 is listed for "N=C(NCCN1CCOCC1)c1c(O)nsc1Nc1ccc(Oc2cc(F)cc(F)c2)cc1" ?
0.1 to 0.5 µM

Which IC50 is listed for "CC(C)NC(=N)c1c(O)nsc1Nc1ccc(Cl)cc1Cl" ?
0.001 to 0.1 µM

Which IC50 is listed for Cc1ccc(Cl)c(Oc2ccc(Nc3snc(O)c3C(=N)NC(C)CO)cc2)c1 (stereo not drawn) ?
0.001 to 0.1 µM

Which IC50 is listed for "CC(C)OCCCNC(=N)c1c(O)nsc1Nc1ccc(Oc2ccccc2)cc1" ?
0.001 to 0.1 µM

Which IC50 is listed for "CC(=O)Oc1nsc(Nc2ccc(Oc3ccccc3)cc2)c1C(=N)NC(C)C" ?
0.1 to 0.5 µM

###

biological target: MEK1^CA (human GST-MEK1, constitutively active, Ser218Asp and Ser222Asp) (Homo sapiens, UniProt Q02750, S218D/S222D); construct: GST; made in house; host or cells: Escherichia coli; experiment: MEK1 enzymatic activity assay (MEK1^CA / ERK2 / MBP, [γ-33P]ATP incorporation); assay type: biochemical; details: Table 1, compounds of formula I; read-out: Avg IC50
ENDPOINT_NAME: IC50

Which IC50 is listed for N=C(NCCCO)c1c(O)nsc1NCC1CCCCC1 [compound 125] ?
> 500 nM

All values here come from patent US7652047B2.
